# Test system: Salmonella typhimurium
# Assay method text: Mutagenicity in Salmonella typhimurium TA100 at 5 mg/ml after 48 hrs by AMES MPF assay in absence of Sprague-Dawley rat liver microsomal S9 fraction relative to baseline
# Type: toxicity, organism-based
# Measurement parameters: salmonella enterica subsp. enterica serovar typhimurium
# binarize fold change (FC): threshold 1 inclusive, high side True, low side False

Reference set (5 entries):
Fc1ccc(C2CC(c3ccc(Cl)s3)=NN2c2nc(-c3ccc(Cl)cc3)cs2)cc1 (stereo unspecified); False
Cc1ccc(C2=NN(c3nc(-c4ccc(S(C)(=O)=O)cc4)cs3)C(c3ccc(F)cc3)C2)s1 (stereo unspecified); True
Fc1ccc(C2CC(c3ccc(Cl)s3)=NN2c2nc(-c3ccc(C(F)(F)F)cc3)cs2)cc1 (stereo unspecified); True
Cc1ccc(C2=NN(c3nc(-c4ccc(C#N)cc4)cs3)C(c3ccc(F)cc3)C2)s1 (stereo unspecified); False
Fc1ccc(C2CC(c3ccc(Cl)s3)=NN2c2nc(-c3ccc(Br)cc3)cs2)cc1 (stereo unspecified); True

Continue with the molecule presented below.
API: above_or_equal(metric=fold change (FC), cutoff=1) for item Fc1ccc(C2CC(c3ccc(Cl)s3)=NN2c2nc(-c3ccccc3)cs2)cc1 (stereo unspecified)
False

====

# Tested on: [Candida] zeylanoides
# Assay method text: Antifungal activity against Candida zeylanoides NRLL Y 1774 after 48 hrs by broth microdilution assay
# Type: functional
# Measurement parameters: Dujonia zeylanoides, NRLL Y 1774, 48 h
Readout name: MIC

Cc1ccc(C2=NN(c3nc(-c4ccccc4)cs3)C(c3ccc(F)cc3)C2)s1 (centres undefined); 500 mg/L
O=[N+]([O-])c1ccc(-c2csc(N3N=C(c4ccc(Cl)s4)CC3c3ccc(F)cc3)n2)cc1 (centres undefined); 250 mg/L
Cc1ccc(C2=NN(c3nc(-c4ccc(Br)cc4)cs3)C(c3ccc(F)cc3)C2)s1 (centres undefined); 250 mg/L

Lab book: MIC of CS(=O)(=O)c1ccc(-c2csc(N3N=C(c4ccc(Cl)s4)CC3c3ccc(F)cc3)n2)cc1 (centres undefined) noted as 250 mg/L

Lab book: MIC of Fc1ccc(C2CC(c3ccc(Cl)s3)=NN2c2nc(-c3ccc(C(F)(F)F)cc3)cs2)cc1 (centres undefined) noted as 500 mg/L

Lab book: MIC of Cc1ccc(C2=NN(c3nc(-c4ccc(S(C)(=O)=O)cc4)cs3)C(c3ccc(F)cc3)C2)s1 (centres undefined) noted as 250 mg/L

Lab book: MIC of COc1ccc(-c2csc(N3N=C(c4ccc(C)s4)CC3c3ccc(F)cc3)n2)cc1 (centres undefined) noted as 500 mg/L

Lab book: MIC of Cc1ccc(C2=NN(c3nc(-c4ccc([N+](=O)[O-])cc4)cs3)C(c3ccc(F)cc3)C2)s1 (centres undefined) noted as 250 mg/L

Lab book: MIC of Fc1ccc(C2CC(c3ccc(Cl)s3)=NN2c2nc(-c3ccccc3)cs2)cc1 (centres undefined) noted as 250 mg/L

====

# System: A549
# Assay method text: Antiproliferative activity against human A549 cells after 24 hrs by XTT assay
# Format: functional, cell-based
# Measurement parameters: A549, 24 h
Readout name: IC50 (µg/mL)
Output spec: scalar in µg/mL, unitless text.

Cc1ccc(C2=NN(c3nc(-c4ccc([N+](=O)[O-])cc4)cs3)C(c3ccc(F)cc3)C2)s1 (stereo not given); 16.7

Lab book: IC50 of Fc1ccc(C2CC(c3ccc(Cl)s3)=NN2c2nc(-c3ccc(Br)cc3)cs2)cc1 (stereo not given) noted as 62.5

Lab book: IC50 of Cc1ccc(C2=NN(c3nc(-c4ccc(C#N)cc4)cs3)C(c3ccc(F)cc3)C2)s1 (stereo not given) noted as 322

Lab book: IC50 of Fc1ccc(C2CC(c3ccc(Cl)s3)=NN2c2nc(-c3ccc(Cl)cc3)cs2)cc1 (stereo not given) noted as 125

// provenance: ChEMBL document CHEMBL3407339
